Experiment: Selectivity index, ratio of IC50 for cytotoxicity in CHO cells incubated for 68 hrs by MTT assay to IC50 for cytotoxicity in human OV2008 cells incubated for 68 hrs by MTT assay
Format: toxicity, cell-based
Conditions: Chinese hamster (CHO cells), CHO cells versus OV2008 cells, read-out: Ratio IC50
readout: selectivity ratio at 68 h

Q: Fill in the blank: the reported selectivity ratio at 68 h of `O=C(/C=C/c1cccc(OCc2ccccc2)c1)c1ccc(O)cc1` is ____.
Ans: 6 to 30

----------
Experiment: Selectivity index, ratio of IC50 for cytotoxicity in human CRL1459 cells incubated for 68 hrs by MTT assay to IC50 for cytotoxicity in human OV2008 cells incubated for 68 hrs by MTT assay
Type: toxicity, cell-based
Settings: CRL1459 cells versus OV2008 cells, read-out: Ratio IC50
readout: selectivity ratio at 68 h

Q: Fill in the blank: the reported selectivity ratio at 68 h of `O=C(/C=C/c1cccc(OCc2ccccc2)c1)c1ccc(O)cc1` is ____.
Ans: 6 to 30

----------
Experiment: Selectivity index, ratio of IC50 for cytotoxicity in HEK293 cells incubated for 68 hrs by MTT assay to IC50 for cytotoxicity in human A2780 cells incubated for 68 hrs by MTT assay
Type: toxicity, cell-based
Settings: HEK293 cells versus A2780 cells, read-out: Ratio IC50
readout: selectivity ratio at 68 h

Q: Fill in the blank: the reported selectivity ratio at 68 h of `O=C(/C=C/c1cccc(OCc2ccccc2)c1)c1ccc(O)cc1` is ____.
Ans: 6 to 30

----------
Tested on: CHO
Experiment: Cytotoxicity in CHO cells assessed as reduction in cell viability incubated for 68 hrs by MTT assay
Type: cell-based
Conditions: Cricetulus griseus
Provide the reported pIC50 of each item.
Answers are plain numbers, as −log10 of the molar value.

structureSmilesString	pIC50
O=C(/C=C/c1cccc(OCc2ccccc2)c1)c1ccccc1Br	5.04
O=C(/C=C/c1cccc(OCc2ccccc2)c1)c1ccc(Cl)cc1	4.36
O=C(/C=C/c1ccccc1)c1ccccc1	4.64
COc1ccc(C(=O)/C=C/c2cccc(OCc3ccccc3)c2)cc1	4.64
O=C(/C=C/c1cccc(OCc2ccccc2)c1)c1ccc(Cl)c(Cl)c1Cl	5.07
O=C(/C=C/c1cccc(OCc2ccccc2)c1)c1cccc(Br)c1	5.04
O=C(/C=C/c1cccc(OCc2ccccc2)c1)c1ccccc1	4.66
Cc1ccc(C(=O)/C=C/c2cccc(OCc3ccccc3)c2)cc1	4.58

Return reported pIC50 values for all items listed beneath this line.
1. O=C(/C=C/c1cccc(OCc2ccccc2)c1)c1ccc(Cl)cc1Cl
2. O=C(/C=C/c1cccc(OCc2ccccc2)c1)c1ccc([N+](=O)[O-])cc1

Ans:
1: 4.56; 2: 4.08

Return reported pIC50 values for all items listed beneath this line.
1. O=C(/C=C/c1cccc(OCc2ccccc2)c1)c1ccc(O)cc1
2. O=C(/C=C/c1cccc(OCc2ccccc2)c1)c1ccc(Br)cc1

Ans:
1. 5.09
2. 5.05

----------
Test: Selectivity index, ratio of IC50 for cytotoxicity in HEK293 cells incubated for 68 hrs by MTT assay to IC50 for cytotoxicity in human OV2008 cells incubated for 68 hrs by MTT assay
Assay type: toxicity, cell-based
Settings: HEK293 cells versus OV2008 cells, read-out: Ratio IC50
readout: selectivity ratio at 68 h

Q: Fill in the blank: the reported selectivity ratio at 68 h of `O=C(/C=C/c1cccc(OCc2ccccc2)c1)c1ccc(O)cc1` is ____.
Ans: 6 to 30

----------
System: DU-145
Assay: Cytotoxicity in human DU145 cells assessed as reduction in cell viability incubated for 68 hrs by MTT assay
Assay type: functional, cell-based
Conditions: DU-145, 68 h
Provide the reported IC50 of each item.
One number for each entry, in µM.

Worked cases, answers included:
structureSmilesString	readout	scaleUnit	readoutNumber
O=C(/C=C/c1cccc(OCc2ccccc2)c1)c1ccc([N+](=O)[O-])cc1	IC50	µM	52.5
O=C(/C=C/c1cccc(OCc2ccccc2)c1)c1ccccc1Br	IC50	µM	3
O=C(/C=C/c1ccccc1)c1ccccc1	IC50	µM	50.1
O=C(/C=C/c1cccc(OCc2ccccc2)c1)c1cccc(Br)c1	IC50	µM	9.1
Cc1ccc(C(=O)/C=C/c2cccc(OCc3ccccc3)c2)cc1	IC50	µM	25.6

Return reported IC50 values for all items listed beneath this line.
1. COc1ccc(C(=O)/C=C/c2cccc(OCc3ccccc3)c2)cc1
2. O=C(/C=C/c1cccc(OCc2ccccc2)c1)c1ccc(Cl)c(Cl)c1Cl
3. O=C(/C=C/c1cccc(OCc2ccccc2)c1)c1ccc(Cl)cc1

Ans:
1. 51.3
2. 6.4
3. 43.4

----------
Tested on: DU-145
Experiment: Cytotoxicity in human DU145 cells assessed as reduction in cell viability incubated for 68 hrs by MTT assay
Assay type: functional, cell-based
Settings: DU-145, 68 h
readout: IC50
Please answer using a numeric value trailed by its unit.

structureSmilesString	IC50
O=C(/C=C/c1cccc(OCc2ccccc2)c1)c1ccc(Cl)cc1Cl	27.3 µM
O=C(/C=C/c1cccc(OCc2ccccc2)c1)c1ccccc1	42.4 µM
O=C(/C=C/c1cccc(OCc2ccccc2)c1)c1ccc(O)cc1	6.3 µM

Could you now consider this next compound?
Q: Fill in the blank: the reported IC50 of `O=C(/C=C/c1cccc(OCc2ccccc2)c1)c1ccc(Br)cc1` is ____.
Ans: 5.7 µM
